Origin of measurements: ChEMBL document CHEMBL1136905

# Method Notes: Volume of distribution at steady state in iv dosed rat
# Format: ADME, organism-based
# Details: in vivo, read-out: Vdss
Readout Type: Vd (L/kg)

[[record]]
substance_smiles = "CC(C)c1onc(COc2c(Cl)cccc2Cl)c1COc1ccc(/C=C/c2cccc(C(=O)O)c2)c(Cl)c1"
result_number = 1.2

[[record]]
substance_smiles = "CC(C)c1onc(CNc2c(Cl)cccc2Cl)c1COc1ccc(/C=C/c2cccc(C(=O)O)c2)c(Cl)c1"
result_number = 2.1

[[record]]
substance_smiles = "CC(C)c1onc(COc2c(Cl)cc(F)cc2Cl)c1COc1ccc(/C=C/c2cccc(C(=O)O)c2)c(Cl)c1"
result_number = 1.4

[[record]]
substance_smiles = "CC(C)c1onc(-c2c(Cl)cncc2Cl)c1COc1ccc(/C=C/c2cccc(C(=O)O)c2)c(Cl)c1"
result_number = 1.1


----------
# Target System: Bile acid receptor (Homo sapiens)
# Sequence (Q96RI1 whole entry): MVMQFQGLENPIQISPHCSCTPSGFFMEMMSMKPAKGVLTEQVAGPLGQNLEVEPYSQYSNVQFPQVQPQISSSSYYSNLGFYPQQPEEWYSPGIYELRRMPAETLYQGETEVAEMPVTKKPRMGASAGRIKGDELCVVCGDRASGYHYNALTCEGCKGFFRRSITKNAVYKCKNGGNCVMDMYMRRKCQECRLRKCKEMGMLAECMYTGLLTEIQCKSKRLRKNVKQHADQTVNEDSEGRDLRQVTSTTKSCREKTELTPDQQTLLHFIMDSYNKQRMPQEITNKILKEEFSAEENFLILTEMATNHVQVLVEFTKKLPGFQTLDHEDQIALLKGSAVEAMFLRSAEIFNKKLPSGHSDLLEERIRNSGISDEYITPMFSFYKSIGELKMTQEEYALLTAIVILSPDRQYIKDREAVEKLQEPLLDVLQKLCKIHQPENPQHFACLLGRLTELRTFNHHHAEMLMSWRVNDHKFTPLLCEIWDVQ
# Method Notes: Agonist activity at human FXR transfected in african green monkey CV1 cells by luciferase reporter gene transient transfection assay relative to GW-4064
# Format: functional, cell-based
# Details: CV-1
%max values, listed per item
Readout Type: %max (%)

[[record]]
substance_smiles = "CC(C)c1onc(CCc2c(Cl)cccc2Cl)c1COc1ccc(/C=C/c2cccc(C(=O)O)c2)c(Cl)c1"
readout_type = "%max"
result_number = 104

[[record]]
substance_smiles = "CC(C)c1onc(COc2cccc3ccccc23)c1COc1ccc(/C=C/c2cccc(C(=O)O)c2)c(Cl)c1"
readout_type = "%max"
result_number = 34

[[record]]
substance_smiles = "O=C(O)c1cccc(/C=C/c2ccc(OCc3c(-c4c(Cl)cccc4Cl)noc3C3CCC3)cc2Cl)c1"
readout_type = "%max"
result_number = 100


----------
# Target System: UniProt Q96RI1
# Method Notes: Agonist activity at human FXR transfected in african green monkey CV1 cells by luciferase reporter gene transient transfection assay
# Assay type: functional, cell-based, CV-1
pEC50: −log10 of the molar value.
Readout Type: pEC50

[[record]]
substance_smiles = "CC(C)c1onc(CCc2ccccc2)c1COc1ccc(/C=C/c2cccc(C(=O)O)c2)c(Cl)c1"
result_number = 7.03

[[record]]
substance_smiles = "CC(C)c1onc(CNc2c(Cl)cccc2Cl)c1COc1ccc(/C=C/c2cccc(C(=O)O)c2)c(Cl)c1"
result_number = 6.85

[[record]]
substance_smiles = "Cc1cccc(C)c1OCc1noc(C(C)C)c1COc1ccc(/C=C/c2cccc(C(=O)O)c2)c(Cl)c1"
result_number = 7.25

[[record]]
substance_smiles = "CC(C)c1onc(COc2ccc(Cl)cc2Cl)c1COc1ccc(/C=C/c2cccc(C(=O)O)c2)c(Cl)c1"
result_number = 6.16

[[record]]
substance_smiles = "CC[C@@H](C)c1onc(-c2c(Cl)cccc2Cl)c1COc1ccc(/C=C/c2cccc(C(=O)O)c2)c(Cl)c1"
result_number = 7.03

[[record]]
substance_smiles = "CC(C)c1onc(COC(C)(C)C)c1COc1ccc(/C=C/c2cccc(C(=O)O)c2)c(Cl)c1"
result_number = 6.22

[[record]]
substance_smiles = "CC(C)c1onc(COc2c(F)cccc2Cl)c1COc1ccc(/C=C/c2cccc(C(=O)O)c2)c(Cl)c1"
result_number = 6.54

[[record]]
substance_smiles = "CC(C)c1onc(CNc2c(Cl)cncc2Cl)c1COc1ccc(/C=C/c2cccc(C(=O)O)c2)c(Cl)c1"
result_number = 6.38

[[record]]
substance_smiles = "Cc1cccc(Cl)c1OCc1noc(C(C)C)c1COc1ccc(/C=C/c2cccc(C(=O)O)c2)c(Cl)c1"
result_number = 6.82

